Each item that follows carries a reported inhibition at 200 µM.
test system: Streptococcus mutans; test: Growth inhibition of Streptococcus mutans UA159 at 200 uM after 24 hrs; assay type: organism-based; conditions: Streptococcus mutans, UA159, 24 h; read-out: GI
A number alone suffices; assume %.

COMPOUND | inhibition at 200 µM, %
O=C(/C=C/c1ccc(O)cc1O)c1cccc(O)c1 (stereo in doubt; 9) | 10
COc1cc(C(=O)/C=C/c2ccccc2O)ccc1O | 71
COc1ccc(/C=C/C(=O)c2ccc(OC)c(OC)c2)cc1O | 30
O=C(/C=C/c1ccc(O)cc1)c1ccccc1O | 48
COc1ccc(/C=C/C(=O)c2cc(O)ccc2O)cc1 | 76
COc1cc(/C=C/C(=O)c2ccccc2O)ccc1O | 85
O=C(/C=C/c1cccc(O)c1)c1ccccc1O | 86

Attention now turns to another entry.
Qu. For `O=C(/C=C/c1cc(Cl)cc(Cl)c1O)c1cccc(O)c1` , what is its reported inhibition at 200 µM?
Ans. 82
